Data provenance: patent US5231182A

tested on: Endotoxin induced shock and mortality; assay: Endotoxin induced shock and mortality in mice: low dose, chronic mouse endotoxemia; type: in vivo, Male Balb/c mice; conditions: day 5; dose 10 mg/kg i.p.
Let's look at some compounds and their measured % Survival.

molecule: CCCCCCCCCCCCCCOc1cccc(CC(=O)Nc2cccc(C[n+]3csc(C)c3)c2)c1.[Br-]
target-under-test: Endotoxin induced shock and mortality
% Survival, %: 43
//
molecule: CCCCCCCCCCCCCCOc1ccc(CC(=O)Nc2ccc(C[n+]3csc(C)c3)cc2)cc1.[Br-]
target-under-test: Endotoxin induced shock and mortality
% Survival, %: 80
//
molecule: CCCCCCCCCCCCCCOc1ccc(CN(C(=O)NC)c2cccc(C[n+]3csc(C)c3)c2)cc1.[Br-]
target-under-test: Endotoxin induced shock and mortality
% Survival, %: 46
//
molecule: CCCCCCCCCCCCCCOc1ccc(CC(=O)Nc2cccc(C[n+]3ccsc3)c2)cc1.[Br-]
target-under-test: Endotoxin induced shock and mortality
% Survival, %: 63
//
molecule: CCCCCCCCCCCCCCOc1ccc(CN(C(C)=O)c2cccc(C[n+]3csc(C)c3)c2)cc1.[Br-]
target-under-test: Endotoxin induced shock and mortality
% Survival, %: 23

###

Let's look at some compounds and their measured No Surv./tot..
Test system: Endotoxin induced shock and mortality
Assay: Endotoxin induced shock and mortality in mice: low dose, chronic mouse endotoxemia
Type: in vivo, Male Balb/c mice
Conditions: day 5; dose 10 mg/kg i.p.
Procedure: Endotoxin administration produces a shock-like state characterized by vascular permeability changes, hypotension, neutropenia, thrombocytopenia,multiple organ damage and death. […] For the chronic endotoxin shock model, a lower dose of endotoxin is administered (generally 15 to 20 mg/kg i.p). […] The number of survivors in each group is recorded each day for a period of 5 to 7 days. […]
property: No Surv./tot.

molecule: CCCCCCCCCCCCCCOc1ccc(CC(=O)Nc2cccc(C[n+]3ccsc3)c2)cc1.[Br-]
target-under-test: Endotoxin induced shock and mortality
measured-result: 19/30
--
molecule: CCCCCCCCCCCCCCOc1ccc(CN(C(C)=O)c2cccc(C[n+]3csc(C)c3)c2)cc1.[Br-]
target-under-test: Endotoxin induced shock and mortality
measured-result: 7/30
--
molecule: CCCCCCCCCCCCCCOc1cccc(CC(=O)Nc2cccc(C[n+]3csc(C)c3)c2)c1.[Br-]
target-under-test: Endotoxin induced shock and mortality
measured-result: 12/30
--
molecule: CCCCCCCCCCCCCCOc1ccc(CN(C(=O)NC)c2cccc(C[n+]3csc(C)c3)c2)cc1.[Br-]
target-under-test: Endotoxin induced shock and mortality
measured-result: 14/30
--
molecule: CCCCCCCCCCCCCCOc1ccc(CC(=O)Nc2ccc(C[n+]3csc(C)c3)cc2)cc1.[Br-]
target-under-test: Endotoxin induced shock and mortality
measured-result: 24/30
